# Assay details: Cmax in rat at 5 mg/kg, iv
# Type: ADME, organism-based
# Parameters: dose 5 mg/kg, route intravenous
# Stated conditions: in vivo
Property measured: Cmax

Known Cmax results, listed for orientation:
- CN1C[C@@H]2C[C@H]1CN2Cc1nc2c(oc3ccc(Br)cc32)c(=O)[nH]1: 1500 nM
- O=c1[nH]c(CN2CC[C@@H](O)C2)nc2c1oc1ccc(Br)cc12: 7600 nM

Please find the next compound below.
Task: Bench note: what Cmax did N[C@@H]1CCN(Cc2nc3c(oc4ccc(Br)cc43)c(=O)[nH]2)C1 show?
Result: 1800 nM

====

# Assay details: Plasma concentration in mouse at 100 mg/kg, po after 1 hr
# Type: ADME, organism-based
# Set-up: dose 100 mg/kg, route oral
Property measured: concentration at 1 h (µM)
Express the result in µM but write the number alone.

Known concentration at 1 h results, listed for orientation:
• N[C@@H]1CCN(Cc2nc3c(oc4ccc(Br)cc43)c(=O)[nH]2)C1 = 6
• O=c1[nH]c(CN2CC[C@@H](O)C2)nc2c1oc1ccc(Br)cc12 = 93
• O=c1[nH]c(CN2CC(O)C2)nc2c1oc1ccc(Br)cc12 = 78

Task: Bench note: what concentration at 1 h did CN1C[C@@H]2C[C@H]1CN2Cc1nc2c(oc3ccc(Br)cc32)c(=O)[nH]1 show?
Result: 11

Task: Then O=c1[nH]c(CN2CCC2)nc2c1oc1ccc(Br)cc12 ?
Result: 13
